# tested on: Non-receptor tyrosine-protein kinase TYK2 (Homo sapiens)
# assay protocol: Binding affinity to TYK2 JH2 domain (unknown origin) assessed as melting temperature at 10 uM by thermal shift assay
# setup conditions: tested as the 2H-labelled form
Cut-off 60 °C on Tm, inclusive. At or above means criterion met; below means criterion not met.

# example entries with known answers
1) CNC(=O)c1nnc(NC(=O)C2CC2)cc1Nc1cccc(C(=O)Nc2ccc(NC(=O)C3CCCC3)cc2)c1OC	criterion not met
2) CNC(=O)c1nnc(NC(=O)C2CC2)cc1Nc1cccc(C(=O)Nc2ccc(-c3cccnc3)cc2)c1OC	criterion not met
3) CNC(=O)c1nnc(NC(=O)C2CC2)cc1Nc1cccc(C(=O)Nc2ccc(-n3ccnc3)cc2)c1OC	criterion not met

Quick check: does `CNC(=O)c1nnc(NC(=O)C2CC2)cc1Nc1cccc(C(=O)Nc2ccc(-c3ncn(C)n3)cc2)c1OC` have Tm greater than or equal to 60 °C?
criterion not met

# check: Tm of `CNC(=O)c1nnc(NC(=O)C2CC2)cc1Nc1cccc(C(=O)Nc2ccc(-c3ncn(C4CC4)n3)cc2)c1OC` is greater than or equal to 60 °C
criterion met

====

# tested on: CYP2B6 (Homo sapiens, UniProt P20813)
# Sequence (P20813 whole entry): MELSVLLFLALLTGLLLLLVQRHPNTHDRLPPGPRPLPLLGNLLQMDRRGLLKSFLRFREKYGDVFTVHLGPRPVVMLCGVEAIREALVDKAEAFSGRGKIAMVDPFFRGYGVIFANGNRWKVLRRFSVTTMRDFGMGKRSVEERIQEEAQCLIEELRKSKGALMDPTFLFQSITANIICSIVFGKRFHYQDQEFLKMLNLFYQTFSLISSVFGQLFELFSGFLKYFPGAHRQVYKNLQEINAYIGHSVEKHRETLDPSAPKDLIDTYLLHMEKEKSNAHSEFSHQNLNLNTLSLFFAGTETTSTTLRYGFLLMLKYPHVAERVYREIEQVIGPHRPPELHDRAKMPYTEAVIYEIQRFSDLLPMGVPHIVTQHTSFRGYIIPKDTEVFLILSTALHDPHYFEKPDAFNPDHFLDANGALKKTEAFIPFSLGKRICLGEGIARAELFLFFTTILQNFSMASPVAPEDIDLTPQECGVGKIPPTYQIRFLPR
# assay protocol: Inhibition of CYP2B6 (unknown origin) at 1 uM relative to control
# Assay type: ADME
measure name: inhibition at 1 µM (%)
Numbers only here, please. The scale is %.

Give its inhibition at 1 µM value. Item: `[2H]C([2H])([2H])NC(=O)c1nnc(NC(=O)C2CC2)cc1Nc1cccc(C(=O)Nc2ccc(-c3ncn(C4CC4)n3)cc2)c1OC`
16.9

====

# assay protocol: Stability in mouse liver microsomes assessed as parent compound remaining measured after 60 mins
# Assay type: ADME, Microsome
# setup conditions: read-out: Stability
In plain terms, low remaining at 1 h, meaning strictly below 20%, gives yes (1), and everything else gives no (0).

Consider the worked cases shown below.
1) [2H]C([2H])([2H])NC(=O)c1nnc(NC(=O)C2CC2)cc1Nc1cccc(C(=O)Nc2ccc(-c3ncn(C4CC4)n3)cc2)c1OC	no (0)
2) [2H]C([2H])([2H])NC(=O)c1nnc(NC(=O)C2CC2)cc1Nc1cccc(C(=O)Nc2ccc(-n3cccn3)cc2)c1OC	no (0)
3) [2H]C([2H])([2H])NC(=O)c1nnc(NC(=O)C2CC2)cc1Nc1cccc(C(=O)Nc2ccc(-c3ccc(F)c(=O)[nH]3)cc2)c1OC	no (0)
4) [2H]C([2H])([2H])NC(=O)c1nnc(NC(=O)C2CC2)cc1Nc1cccc(C(=O)Nc2ccc(N3CCCCC3=O)c(Cl)c2)c1OC	yes (1)
5) [2H]C([2H])([2H])NC(=O)c1nnc(NC(=O)C2CC2)cc1Nc1cccc(C(=O)Nc2ccc(N3CCCCC3)cc2)c1OC	yes (1)
6) [2H]C([2H])([2H])NC(=O)c1nnc(Nc2ccccn2)cc1Nc1cccc(C(=O)Nc2ccc(N3CCCCC3=O)cc2)c1OC	no (0)

Here's the next entry for you.
Confirm or reject: remaining at 1 h of `[2H]C([2H])([2H])NC(=O)c1nnc(NC(=O)C2CC2)cc1Nc1cccc(C(=O)Nc2ccc(N3CCCCC3=O)cc2)c1OC` lies strictly below 20%
no (0)

====

# tested on: Non-receptor tyrosine-protein kinase TYK2 (Homo sapiens, UniProt P29597)
# Sequence (P29597 whole entry, the tested form may be a part): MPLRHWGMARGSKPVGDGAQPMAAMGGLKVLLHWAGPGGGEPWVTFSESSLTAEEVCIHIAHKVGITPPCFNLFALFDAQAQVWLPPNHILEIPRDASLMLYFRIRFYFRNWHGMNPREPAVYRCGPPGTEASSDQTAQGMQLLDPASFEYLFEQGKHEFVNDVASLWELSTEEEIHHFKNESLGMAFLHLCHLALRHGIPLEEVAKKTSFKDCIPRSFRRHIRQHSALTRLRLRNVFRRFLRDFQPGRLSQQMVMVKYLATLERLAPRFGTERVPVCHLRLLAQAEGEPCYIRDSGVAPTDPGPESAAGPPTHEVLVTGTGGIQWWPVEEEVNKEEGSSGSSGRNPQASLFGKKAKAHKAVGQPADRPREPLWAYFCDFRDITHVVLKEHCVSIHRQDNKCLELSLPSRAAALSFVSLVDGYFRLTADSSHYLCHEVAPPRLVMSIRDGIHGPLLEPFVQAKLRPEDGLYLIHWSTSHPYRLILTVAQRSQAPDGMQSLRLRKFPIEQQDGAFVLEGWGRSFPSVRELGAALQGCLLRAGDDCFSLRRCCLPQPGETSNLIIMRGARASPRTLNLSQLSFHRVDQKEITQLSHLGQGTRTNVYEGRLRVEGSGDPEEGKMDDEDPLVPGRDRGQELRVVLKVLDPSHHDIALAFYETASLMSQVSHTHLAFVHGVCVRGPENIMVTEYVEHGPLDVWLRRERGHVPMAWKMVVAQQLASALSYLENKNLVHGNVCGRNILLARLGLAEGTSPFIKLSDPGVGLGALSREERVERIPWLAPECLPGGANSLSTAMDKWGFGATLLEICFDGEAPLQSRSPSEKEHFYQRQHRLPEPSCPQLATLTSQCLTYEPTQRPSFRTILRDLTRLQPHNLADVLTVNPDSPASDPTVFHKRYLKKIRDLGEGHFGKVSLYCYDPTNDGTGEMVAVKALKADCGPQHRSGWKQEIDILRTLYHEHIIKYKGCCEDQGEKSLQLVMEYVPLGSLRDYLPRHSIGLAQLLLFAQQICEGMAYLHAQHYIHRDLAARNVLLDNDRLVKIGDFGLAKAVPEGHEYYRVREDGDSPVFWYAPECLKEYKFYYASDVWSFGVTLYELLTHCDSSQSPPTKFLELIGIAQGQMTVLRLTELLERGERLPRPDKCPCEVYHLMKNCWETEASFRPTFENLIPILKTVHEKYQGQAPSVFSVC
# assay protocol: Binding affinity to TYK2 JH2 domain (unknown origin) assessed as melting temperature at 10 uM by thermal shift assay
# setup conditions: tested as the 2H-labelled form
Reported Tm values are given for each entry in this list.
Could you kindly put the unit after your number?

1) CNC(=O)c1nnc(NC(=O)C2CC2)cc1Nc1cccc(C(=O)Nc2ccc(C3CCCNC3=O)cc2)c1OC (centres undefined)	70.2 °C
2) CNC(=O)c1nnc(NC(=O)C2CC2)cc1Nc1cccc(C(=O)Nc2ccc(-n3ccccc3=O)cc2)c1OC	62.2 °C
3) CNC(=O)c1nnc(NC(=O)C2CC2)cc1Nc1cccc(C(=O)Nc2ccc(N3CCCC3=O)cc2)c1OC	61.9 °C

Turning now to a further record.
Need Tm of `CNC(=O)c1nnc(NC(=O)C2CC2)cc1Nc1cccc(C(=O)Nc2cccc(-n3ccccc3=O)c2)c1OC` , thanks.
57.6 °C
